- experimental_system: human sodium channel Nav 1.7 (Homo sapiens (Human), UniProt Q15858)
- Sequence (Q15858 whole entry): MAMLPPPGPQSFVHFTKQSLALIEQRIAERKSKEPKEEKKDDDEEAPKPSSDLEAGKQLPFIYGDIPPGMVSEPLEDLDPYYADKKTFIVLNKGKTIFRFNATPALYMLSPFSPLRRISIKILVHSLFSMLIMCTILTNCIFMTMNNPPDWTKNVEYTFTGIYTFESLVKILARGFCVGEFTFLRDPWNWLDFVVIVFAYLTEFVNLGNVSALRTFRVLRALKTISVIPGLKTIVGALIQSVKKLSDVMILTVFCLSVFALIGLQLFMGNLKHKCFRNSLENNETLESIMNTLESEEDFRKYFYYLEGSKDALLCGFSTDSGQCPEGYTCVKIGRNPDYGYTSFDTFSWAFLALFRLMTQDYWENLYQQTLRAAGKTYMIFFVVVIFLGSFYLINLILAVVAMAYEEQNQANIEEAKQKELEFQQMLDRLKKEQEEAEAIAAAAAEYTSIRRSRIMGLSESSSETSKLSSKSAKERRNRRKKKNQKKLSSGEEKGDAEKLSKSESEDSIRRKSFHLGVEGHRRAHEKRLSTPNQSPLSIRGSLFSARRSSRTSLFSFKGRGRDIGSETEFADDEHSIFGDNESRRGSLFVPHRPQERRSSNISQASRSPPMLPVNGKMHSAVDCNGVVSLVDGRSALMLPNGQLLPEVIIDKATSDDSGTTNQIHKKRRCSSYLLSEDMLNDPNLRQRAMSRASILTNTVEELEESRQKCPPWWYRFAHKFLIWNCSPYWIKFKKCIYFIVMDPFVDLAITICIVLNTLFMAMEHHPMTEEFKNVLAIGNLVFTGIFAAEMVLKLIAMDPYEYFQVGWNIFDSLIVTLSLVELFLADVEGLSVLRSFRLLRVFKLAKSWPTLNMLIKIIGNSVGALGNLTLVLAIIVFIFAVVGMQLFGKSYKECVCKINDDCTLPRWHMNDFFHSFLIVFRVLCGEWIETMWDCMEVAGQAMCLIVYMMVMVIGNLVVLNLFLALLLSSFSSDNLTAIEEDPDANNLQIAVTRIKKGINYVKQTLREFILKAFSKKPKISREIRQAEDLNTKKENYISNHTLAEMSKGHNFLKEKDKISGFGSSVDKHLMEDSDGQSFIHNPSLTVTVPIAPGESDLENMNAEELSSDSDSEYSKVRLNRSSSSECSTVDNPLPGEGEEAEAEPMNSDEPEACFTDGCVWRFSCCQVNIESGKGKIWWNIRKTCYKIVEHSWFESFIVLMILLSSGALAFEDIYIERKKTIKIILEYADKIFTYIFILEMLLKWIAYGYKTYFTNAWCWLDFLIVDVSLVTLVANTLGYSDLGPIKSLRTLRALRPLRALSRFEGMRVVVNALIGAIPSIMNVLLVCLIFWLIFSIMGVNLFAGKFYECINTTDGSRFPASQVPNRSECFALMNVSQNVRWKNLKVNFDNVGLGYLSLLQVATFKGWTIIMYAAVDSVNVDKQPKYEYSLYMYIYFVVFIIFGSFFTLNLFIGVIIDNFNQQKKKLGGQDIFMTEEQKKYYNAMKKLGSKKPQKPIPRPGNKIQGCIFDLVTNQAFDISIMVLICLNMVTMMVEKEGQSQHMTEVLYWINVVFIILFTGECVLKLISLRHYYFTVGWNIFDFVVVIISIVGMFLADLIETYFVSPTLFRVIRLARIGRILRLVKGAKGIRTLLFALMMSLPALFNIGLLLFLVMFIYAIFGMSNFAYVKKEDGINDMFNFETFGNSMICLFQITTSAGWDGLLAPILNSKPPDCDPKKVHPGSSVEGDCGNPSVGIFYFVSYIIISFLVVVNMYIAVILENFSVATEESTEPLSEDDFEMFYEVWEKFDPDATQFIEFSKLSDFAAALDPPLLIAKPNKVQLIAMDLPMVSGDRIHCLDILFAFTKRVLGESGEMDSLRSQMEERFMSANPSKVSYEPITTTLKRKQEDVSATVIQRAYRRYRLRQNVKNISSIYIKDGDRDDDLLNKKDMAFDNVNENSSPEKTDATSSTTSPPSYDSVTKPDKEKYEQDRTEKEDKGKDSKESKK
- assay_protocol: Automated whole-cell voltage-clamp (ScreenPatch 384P), Nav 1.7 sodium current, Protocol 2
- Format: cell-based
- condition: read-out: Nav1.7 IC50
parameter: IC50

Query: For COc1cc(/C=N/NC(=O)c2cncc(-c3ccc(F)cc3)n2)cc(OC)c1 , what is its reported IC50?
Response: > 10 µM

Query: Let us now turn to COc1ccc(-c2cncc(C(=O)N/N=C/c3ccnc(C(N)=O)c3)n2)cc1
Response: > 10 µM

Query: Let us now turn to CCc1nccnc1C(=O)N/N=C/c1cc(OC)cc(OC)c1
Response: > 10 µM

Query: Let us now turn to CCOc1ccc(-c2nc(C(=O)N/N=C/c3cc(OC)cc(OC)c3)cnc2C(F)(F)F)cc1
Response: > 10 µM

Query: Let us now turn to COc1cc(/C=N/NC(=O)c2cncc(N3CCC(F)(F)CC3)n2)cc(OC)c1
Response: > 10 µM

Query: Let us now turn to CCOc1ccc(-c2cncc(C(=O)N/N=C/C3CCC(F)(F)CC3)n2)cc1
Response: > 10 µM

Query: Let us now turn to COc1cc(/C=N/NC(=O)c2cncc(-c3ccc(OC(F)(F)F)cc3)n2)cc(OC)c1
Response: > 10 µM

Query: Let us now turn to COc1cc(/C=N/NC(=O)c2cncc(-c3cccc(Cl)c3)n2)cc(OC)c1
Response: > 10 µM

Query: Let us now turn to COc1cc(/C=N/NC(=O)c2cncc(-c3cccnc3)n2)cc(OC)c1
Response: > 10 µM

* * *

Can you tell me log10 of IC50 for the items I'm about to list?
- experimental_system: human sodium channel Nav 1.7 (Homo sapiens (Human), UniProt Q15858)
- assay_protocol: Automated whole-cell voltage-clamp (ScreenPatch 384P), Nav 1.7 sodium current, Protocol 2
- Type: cell-based
- condition: read-out: Nav1.7 IC50
Please note: log10 values; quantity IC50; unit µM.

Query: For COc1ccc(-c2cncc(C(=O)N/N=C/c3cccc(Cl)c3)n2)cc1 , what is its reported log10 of IC50?
Response: 0.46

Query: Let us now turn to CCOc1ccc(-c2cncc(C(=O)N/N=C/c3cc(OC)ccc3F)n2)cc1
Response: -0.64

Query: Let us now turn to COc1ccc(-c2cncc(C(=O)N/N=C/c3ccccc3)n2)cc1
Response: 0.50

Query: Let us now turn to CCOc1ccc(-c2cnc(C)c(C(=O)N/N=C/c3cc(OC)cc(OC)c3)n2)cc1
Response: 0.71

Query: Let us now turn to COc1cc(/C=N/NC(=O)c2cncc(-c3ccc(OC4CC4)cc3)n2)cc(OC)c1
Response: -1.15

Query: Let us now turn to COc1ccc(-c2cncc(C(=O)N/N=C/C3=C(C)CCCCC3)n2)cc1
Response: 0.42

Query: Let us now turn to CCCOc1cccc(/C=N/NC(=O)c2cncc(-c3ccc(OC)cc3)n2)c1
Response: 0.53

Query: Let us now turn to COc1ccc(-c2cncc(C(=O)N/N=C/c3ccccc3Br)n2)cc1
Response: -0.10

* * *

Can you tell me pIC50 for the items I'm about to list?
- experimental_system: UniProtKB Q15858
- assay_protocol: Automated whole-cell voltage-clamp (ScreenPatch 384P), Nav 1.7 sodium current, Protocol 2
- Type: cell-based
- condition: read-out: Nav1.7 IC50
pIC50: −log10 of the molar value.

Query: For COc1cc(/C=N/NC(=O)c2cncc(-c3ccc(OC)cc3OCCN(C)C)n2)cc(OC)c1 , what is its reported pIC50?
Response: < 5.00

Query: Let us now turn to COc1cc(/C=N/NC(=O)c2cncc(-c3ccccc3Cl)n2)cc(OC)c1
Response: < 5.00

Query: Let us now turn to COc1ccc(-c2cncc(C(=O)N(C)/N=C/c3cc(OC)cc(OC)c3)n2)cc1
Response: < 5.00
